Tested on: HOP-62 NSCLC
Measurement description: NCI-60 one-dose screen, 48 h (100 = growth as untreated, 0 = no growth, -100 = all killed)
Measurement setup: 10 µM
This is part of a sample that, as a whole, favours compounds with a hit. Of some 83,000 tested, about 20% had one in any assay.
Property name: growth (%)
Give bare numbers, in %.

For orientation, consider the following solved cases.
>>> experimental_value("CC(=O)c1cc2c(cc1F)C(C)(C)CCC2(C)C")
112
>>> experimental_value("NC(=S)N/N=C/c1ccc(N)cc1")
97
>>> experimental_value("COc1cc(/C=C/C(=O)c2ccccc2)cc(OC)c1OC")
104
>>> experimental_value("COC(=O)/C=C/C(=O)NC(N)=O")
98.8
>>> experimental_value("COc1ccc(Oc2c(I)cc(CC(NC(C)=O)C(=O)O)cc2I)cc1 (centres undefined)")
80.9

Record growth for all entries; do not skip any.
1. O=C(CCl)N1CCN(C/C=C/c2ccccc2)CC1
2. CCOc1ccc(/C=N/N=C(N)N)cc1OCC
3. O=C(CS)Nc1ccc2ccccc2c1
4. CN1C(=O)CN2CCc3ccccc3C2c2cc(Cl)ccc21 (centres undefined)
5. CC(=O)CC(=O)N(C)C
6. Oc1ccccc1-c1nnco1
7. CC(=O)OCC1=CC2OC(=O)C3=COC(OC4OC(CO)C(O)C(O)C4O)C1C32 (centres undefined)

97.2
106
120
79.8
98.8
81.5
108

Record growth for all entries; do not skip any.
1. Nc1nc(N)c2cc(S(=O)(=O)c3cccc(C(F)(F)F)c3)ccc2n1
2. CN(C)c1ccc(C(c2ccc(O)cc2)c2ccc(N(C)C)cc2)cc1
3. CCc1nn(Cc2ccccc2)c2nc(C)c(CCc3ccccc3)c(Cl)c12
4. CC(=O)OCCC(C)CCC=C(C)C (centres undefined)
5. O=[N+]([O-])c1ccc(/C=C/C=C/c2ccccc2)c(Cl)c1

1. 76.6
2. 99.7
3. 104
4. 108
5. 105

Record growth for all entries; do not skip any.
1. Oc1ccc(O)cc1
2. Cc1ccc(/C=C2\SC(=S)N(c3ccc(F)cc3)C2=O)o1
3. c1cc2cccc3c4cccc5cccc(c(c1)c23)c54
4. CCO/C=C1\SC(=S)N(c2cccc(C)c2)C1=O
5. C[N+](C)(C)C(=O)c1ccccc1

1. 106
2. 83.1
3. 97.7
4. 88.9
5. 101
